Assay Overview: AUC (0 to infinity) in rat at 1 mg/kg, iv
Assay type: ADME, organism-based
Design: time infinity, dose 1 mg/kg, route intravenous
Assay Context: plasma
Experimental Readout: AUC(0-inf)

[[record]]
molecule = "CC(=O)Nc1nc2c(Oc3cc(-c4ccc(C(F)(F)F)cc4)ncn3)cccc2s1 [AMG-517]"
result = "8800 ng·h/mL"


###

Assay Overview: Half life in rat
Assay type: ADME, organism-based
Assay Context: in vivo
Experimental Readout: half-life (h)

[[record]]
entry_smiles = "FC(F)(F)c1ccc(-c2cc(Oc3ccc4cccnc4c3)ncn2)cc1"
unit_info = "h"
result_number = 2.8


###

Target Entity: Transient receptor potential cation channel subfamily V member 1 (Rattus norvegicus, UniProt O35433)
Sequence (O35433 whole entry): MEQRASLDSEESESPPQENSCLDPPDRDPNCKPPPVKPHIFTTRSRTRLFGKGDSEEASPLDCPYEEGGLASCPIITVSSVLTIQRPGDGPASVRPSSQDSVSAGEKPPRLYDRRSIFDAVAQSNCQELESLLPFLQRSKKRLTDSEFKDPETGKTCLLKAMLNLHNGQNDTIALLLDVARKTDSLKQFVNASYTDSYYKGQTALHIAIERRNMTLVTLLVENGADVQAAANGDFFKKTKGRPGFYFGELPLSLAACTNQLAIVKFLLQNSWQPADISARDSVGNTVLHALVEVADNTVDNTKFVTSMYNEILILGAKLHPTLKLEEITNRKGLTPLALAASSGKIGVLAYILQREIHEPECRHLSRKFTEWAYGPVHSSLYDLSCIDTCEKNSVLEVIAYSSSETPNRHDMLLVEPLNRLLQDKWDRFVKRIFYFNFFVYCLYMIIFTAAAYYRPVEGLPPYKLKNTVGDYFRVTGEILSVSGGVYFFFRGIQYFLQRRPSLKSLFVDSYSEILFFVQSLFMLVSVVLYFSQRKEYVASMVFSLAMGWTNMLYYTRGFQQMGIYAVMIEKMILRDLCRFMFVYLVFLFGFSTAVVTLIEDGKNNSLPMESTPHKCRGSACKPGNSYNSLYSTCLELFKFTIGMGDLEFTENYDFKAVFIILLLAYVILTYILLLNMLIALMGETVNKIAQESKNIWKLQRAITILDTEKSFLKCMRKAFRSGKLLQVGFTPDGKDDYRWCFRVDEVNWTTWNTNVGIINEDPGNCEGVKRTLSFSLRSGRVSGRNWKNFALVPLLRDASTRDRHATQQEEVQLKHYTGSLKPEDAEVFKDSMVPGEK
Assay Overview: Antagonist activity at rat TRPV1 expressed in CHO cells assessed as inhibition of capsaicin-induced calcium influx
Assay type: functional, cell-based
pIC50: −log10 of the molar value.
Catalogue of pIC50 values
Experimental Readout: pIC50

[[record]]
entry_smiles = "Nc1cnc2cccc(Oc3cc(-c4ccc(C(F)(F)F)cc4)ncn3)c2n1"
result_qualifier = "="
result_number = 7.20

[[record]]
entry_smiles = "CC(=O)N(C)c1nc2c(Oc3cc(-c4ccc(C(F)(F)F)cc4)ncn3)cccc2s1"
result_qualifier = "<"
result_number = 5.40

[[record]]
entry_smiles = "FC(F)(F)c1ccc(-c2cc(Oc3ccc4ccncc4c3)ncn2)cc1"
result_qualifier = "="
result_number = 6.34

[[record]]
entry_smiles = "FC(F)(F)c1ccc(-c2cc(Oc3ccnc4ccccc34)ncn2)cc1"
result_qualifier = "<"
result_number = 5.40

[[record]]
entry_smiles = "Nc1nc2c(Oc3cc(-c4ccc(C(F)(F)F)cc4)ncn3)cccc2s1"
result_qualifier = "="
result_number = 8.92

[[record]]
entry_smiles = "O=c1ccc2cccc(Oc3cc(-c4ccc(C(F)(F)F)cc4)ncn3)c2[nH]1"
result_qualifier = "<"
result_number = 5.40


Attribution: ChEMBL document CHEMBL1145459
